Record form. Attribute: Kd. Fill in for each entry.
- Assayed System: T1, fasCD40-His (Cynomolgus CD40/TNFRSF5 Protein, His Tag, Beijing ACRO Biosystems Co. Ltd., Cat #: CD0-C52H6) (Macaca fascicularis, UniProt G7PG38 21-193)
- T1 construct: Bought protein; also called monkey (Macaca fascicularis) CD40; not shown: His tag
- Protocol Summary: SPR, Biacore 8K, Protein A chip, CD40-His as analyte, 1:1 Langmuir fit
The response must be a number in nM with no trailing unit.

Recorded Kd (binder 6A4-IgG4-FLAA (antibody, V domains shown, Rest: human IgG4 constant regions with FLAA mutations (F234A and L235A, EU numbering)) VH: QVQLVQSGGGLVQPGGSLRLSCAASGFTFSNYVMSWVRQAPGKGLEWVSTIRGSGISTYYTDSVKGRFTTSRDNPKNTLFLQMSSLRAEDTAVYYCAKGIVGATTPFDYWGQGTLVTVSS VL: EIVLTQSPATLSLSPGERATLSCRASQSVRSFLAWYQQKPGQAPRLLIYETSNRATGIPARFSGSGSGTDFTLTISSLEPEDFAVYYCQQRSDWPPTFGQGTKVEIKR ): 51.7

Recorded Kd (binder 12B5-IgG4-FLAA (antibody, V domains shown, Rest: human IgG4 constant regions with FLAA mutations (F234A and L235A, EU numbering); copies: 2 + 2) VH: QVQLVQSGPGLVKPSETLSLTCTVSGGSISYYYWSWIRQPPGKGLEWIGHISYSGSTNYNPSLKSRVTISEDTSKKQFSLKLDSVTAADTAVYYCAGGIVGARRGFDFWGQGTLVTVSS VL: EIVMTQSPATLSLSPGERATLSCRASQSVSNNLAWYQQKPGQAPRLLIYDASNRAADIPARFSGSGSGTDFTLTISSLEPEDFAVYYCQQRNNWPPTFGQGTKVEIKR ): 0.495

Recorded Kd (binder Bleselumab analog (antibody, human IgG4, V domains shown) VH: QLQLQESGPGLLKPSETLSLTCTVSGGSISSPGYYGGWIRQPPGKGLEWIGSIYKSGSTYHNPSLKSRVTISVDTSKNQFSLKLSSVTAADTAVYYCTRPVVRYFGWFDPWGQGTLVTVSS VL: AIQLTQSPSSLSASVGDRVTITCRASQGISSALAWYQQKPGKAPKLLIYDASNLESGVPSRFSGSGSGTDFTLTISSLQPEDFATYYCQQFNSYPTFGQGTKVEIKR ): 3.35

Recorded Kd (binder 2F8-IgG4-FLAA (antibody, V domains shown, Rest: human IgG4 constant regions with FLAA mutations (F234A and L235A, EU numbering)) VH: EVQLVQSGGGVVQPGRSLRLSCAASGFSFSSYAMHWVRQVPGKGLEWVSVISYDGDNKYHAESVKGRFTISRDNSKNILYLQMNSLRPEDTAVYYCARRGTVTNYYSYSGLDVWGQGTTVTVSS VL: DIQLTQSPLSLPVTPGEPASISCRSSQSLLYSNGKNYLDWYLQKPGQSPQLLIYLASNRASGVPDRFSGSGSGTDFTLKISRVEAEDVGVYFCMQALQTPRTFGQGTKVEIKR ): 0.301

src = patent US20260250403A1
